Here we gather IC50 data for Type-1 angiotensin II receptor (Homo sapiens) reported by several publications.
Target: Type-1 angiotensin II receptor (Homo sapiens)
Sequence (P30556 whole entry): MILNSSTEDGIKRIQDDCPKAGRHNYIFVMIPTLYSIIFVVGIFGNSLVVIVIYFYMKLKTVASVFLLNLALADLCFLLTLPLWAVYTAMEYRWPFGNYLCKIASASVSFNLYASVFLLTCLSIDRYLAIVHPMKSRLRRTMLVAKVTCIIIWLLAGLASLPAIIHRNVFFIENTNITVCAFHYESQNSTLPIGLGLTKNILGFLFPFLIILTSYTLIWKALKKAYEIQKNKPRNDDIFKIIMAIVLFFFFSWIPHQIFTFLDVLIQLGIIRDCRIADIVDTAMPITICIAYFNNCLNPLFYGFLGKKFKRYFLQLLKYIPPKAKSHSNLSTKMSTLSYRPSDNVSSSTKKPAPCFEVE

smiles str	modifier	IC50, nM
CCCc1nc2c(C)cc(C(=O)NCc3ccccc3)cc2n1Cc1ccc(-c2ccccc2C(=O)Nc2nnn[nH]2)cc1	=	82
Cc1ccnc(SCc2cc(=O)c(OC(=O)C(C)(C)C)co2)n1	>	79000
Cc1ccnc(SCc2cc(=O)c(OC(=O)c3ccc(C(F)(F)F)cc3)co2)n1	>	79000
CCCc1nc2c(C)cc(C(=O)NCCc3cc(OC)ccc3OC)cc2n1Cc1ccc(-c2ccccc2C(=O)Nc2nnn[nH]2)cc1	=	30.7
CCCc1nc(CC)c(C(=O)OCCCC(=O)Nc2ccccc2)n1Cc1ccc(-c2ccccc2S(=O)(=O)NC(=O)OCCC(C)C)cc1F	=	0.2
CCCc1nc(CC)c(C(=O)OCc2ccccc2C(=O)c2ccccc2)n1Cc1ccc(-c2ccccc2S(=O)(=O)NC(=O)OCCC(C)C)cc1	=	0.35
CCCCCC(=O)NS(=O)(=O)c1ccccc1-c1ccc(Cn2c(CCC)nc(CN3CCN(c4ccccn4)CC3)c2C(=O)O)cc1	=	6
Cn1nnnc1-c1ccccc1-c1ccc(Cn2cnc3ccc(N(Cc4cccnc4)C(=O)c4ccccc4)cc3c2=O)cc1	=	0.9
CCCc1nc(CC)c(C(=O)OCc2ccccc2NC(=O)c2ccccc2)n1Cc1ccc(-c2ccccc2S(=O)(=O)NC(=O)OCCC(C)C)cc1F	=	0.3
CCc1cc(C)c2nc(C(C)C)n([C@H]3CCc4cc(-c5ccccc5-c5nnn[nH]5)ccc43)c2n1	=	16.9
CCCc1nc(CN2CCN(C(=O)C3CC3)CC2)c(C(=O)O)n1Cc1ccc(-c2ccccc2-c2nnn[nH]2)cc1	=	10
CCCc1nc2c(C)cc(C(=O)NCc3ccccc3OC)cc2n1Cc1ccc(-c2ccccc2S(=O)(=O)Nc2onc(C)c2C)cc1	=	217
O=C(Oc1coc(CSc2ncccn2)cc1=O)c1cccc([N+](=O)[O-])c1	>	79000
CCCCc1ncc(/C=C2/C(=O)N(CCCC)C(=O)N2CCc2csc(Br)c2)n1Cc1ccc(C(=O)OC)cc1	=	25.4
Cc1ccnc(SCc2cc(=O)c(OC(=O)c3ccc(C#N)cc3)co2)n1	>	79000
CCCc1nc(CC)c(C(=O)OCc2ccccc2-c2ccsc2)n1Cc1ccc(-c2ccccc2S(=O)(=O)NC(=O)OCCC(C)C)cc1F	=	0.6

====

Here we gather pIC50 data for UniProtKB P30556 reported by several publications.
Biological target: UniProtKB P30556
Sequence (P30556 whole entry): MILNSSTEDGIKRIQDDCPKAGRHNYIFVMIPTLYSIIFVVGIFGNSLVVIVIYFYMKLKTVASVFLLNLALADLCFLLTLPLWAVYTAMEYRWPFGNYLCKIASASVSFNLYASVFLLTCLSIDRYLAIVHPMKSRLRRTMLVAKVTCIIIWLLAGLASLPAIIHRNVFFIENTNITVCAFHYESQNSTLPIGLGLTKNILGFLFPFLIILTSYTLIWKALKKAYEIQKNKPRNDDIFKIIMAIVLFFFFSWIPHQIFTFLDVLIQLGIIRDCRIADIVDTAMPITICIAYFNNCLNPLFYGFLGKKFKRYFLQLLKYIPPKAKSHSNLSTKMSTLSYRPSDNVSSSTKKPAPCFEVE
pIC50: −log10 of the molar value.

smiles str	modifier	pIC50
CCc1nc2ccn(CC(C)C)c(=O)c2n1[C@H]1CCc2cc(-c3ccccc3-c3nnn[nH]3)ccc21	=	7.71
CCc1nc2ccn(Cc3cccc(C(F)(F)F)c3)c(=O)c2n1[C@H]1CCc2cc(-c3ccccc3-c3nnn[nH]3)ccc21	=	7.09
Cc1ccc(C(=O)Oc2coc(CSc3nccc(C)n3)cc2=O)cc1	<	4.10
CCCc1nc(CC)c(C(=O)OCc2ccccc2C(=O)c2ccccc2)n1Cc1ccc(-c2ccccc2S(=O)(=O)NC(=O)OCCc2ccccc2)cc1	=	9.13
CCCc1nc2c(C)cc(C(=O)N3CCCCC3)cc2n1Cc1ccc(-c2ccccc2C(=O)O)cc1	=	7.70
Cc1ccnc(SCc2cc(=O)c(OC(=O)c3ccc(OC(F)(F)F)cc3)co2)n1	<	4.10
CCCc1nc(CN2CCN(C(=O)c3ccccc3)CC2)c(C(=O)O)n1Cc1ccc(-c2ccccc2-c2nnn[nH]2)cc1	=	8.30
CCCCc1ncc(/C=C2/C(=O)NC(=O)N2CCCC)n1Cc1ccc(S(=O)(=O)NC(F)(F)F)cc1	=	8.48
O=C(Oc1coc(CSc2ncccn2)cc1=O)c1ccccc1	<	4.10
CCCc1nc2c(C)cc(NC(C)=O)cc2n1Cc1ccc(-c2ccccc2C(=O)O)cc1	=	5.84
CCCc1nc(CC)c(C(=O)OCC#CC(=O)N(c2ccccc2)c2ccccc2)n1Cc1ccc(-c2ccccc2-c2nn[nH]n2)cc1	=	7.40
CCCc1nc2c(C)cc(C(=O)NC(C)(C)C)cc2n1Cc1ccc(-c2ccccc2S(=O)(=O)Nc2onc(C)c2C)cc1	=	6.41
CCCCc1ncc(/C=C2/C(=O)N(CCCC)C(=O)N2Cc2ccc3ccccc3c2)n1Cc1ccc(C(=O)OC)cc1	=	6.98
CCCCOc1ccc(C(=O)Oc2coc(CSc3ncccn3)cc2=O)cc1	<	4.10
CCCc1nc2c(C)cc(C(=O)NCCN3CCCC3)cc2n1Cc1ccc(-c2ccccc2C(=O)Nc2nnn[nH]2)cc1	=	7.16
CCCCc1ncc(/C=C2/C(=O)N(CCCC)C(=O)N2Cc2cccc(Cl)c2)n1Cc1ccc(C(=O)OC)cc1	=	6.93
CCCc1nc2c(C)cc(C(=O)NCCc3ccc(F)cc3)cc2n1Cc1ccc(-c2ccccc2C(=O)Nc2nnn[nH]2)cc1	=	6.85
CCc1nc2ccn(Cc3cccnc3)c(=O)c2n1[C@H]1CCc2cc(-c3ccccc3-c3nnn[nH]3)ccc21	=	7.34
CCCc1nc2c(C)cc(C(=O)NCCc3ccc(F)cc3)cc2n1Cc1ccc(-c2ccccc2S(=O)(=O)Nc2onc(C)c2C)cc1	=	6.82
CCCCc1ncc(/C=C2/C(=O)N(CCCC)C(=O)N2Cc2ccsc2)n1Cc1ccc(C(=O)OC)cc1	=	8.32
CCCc1nc(CN(Cc2ccccc2)C(=O)Cc2ccccc2)c(C(=O)O)n1Cc1ccc(-c2ccccc2-c2nn[nH]n2)cc1	=	7.70
CCCc1nc2c(C)cc(C(=O)Nc3ccccc3OC)cc2n1Cc1ccc(-c2ccccc2C(=O)Nc2nnn[nH]2)cc1	=	6.46
CCCc1nc(CC)c(C(=O)OCc2ccc(C(=O)c3ccccc3)cc2)n1Cc1ccc(-c2ccccc2-c2nn[nH]n2)cc1	=	8.05
CCCc1nc(CN2CCN(c3ccccn3)CC2)c(CO)n1Cc1ccc(-c2ccccc2-c2nn[nH]n2)cc1	=	8.00
CCc1nc2ccc(NC(=O)N3CCOCC3)cc2c(=O)n1Cc1ccc(-c2ccccc2S(=O)(=O)NC(=O)OCCC(C)C)cc1F	=	7.74
Cc1ccc(C(=O)Oc2coc(CSc3ncccn3)cc2=O)cc1[N+](=O)[O-]	<	4.10
CCCc1nc(CC)c(C(=O)OCc2ccc(-c3ccccc3)cc2)n1Cc1ccc(-c2ccccc2-c2nnn[nH]2)cc1	=	8.52
CCCc1nc2ccc(NC(=O)NC(C)C)cc2c(=O)n1Cc1ccc(-c2ccccc2S(=O)(=O)NC(=O)COCC(C)C)cc1F	=	8.82
CCc1nc2ccc(NC(=O)NC(C)C)cc2c(=O)n1Cc1ccc(-c2ccccc2S(=O)(=O)NC(=O)OCCC2CC2)cc1F	=	8.14
CCCCOC(=O)NS(=O)(=O)c1ccccc1-c1ccc(Cn2c(CCCC)nc3ccc(NC(=O)N(C)C(C)C)cc3c2=O)c(F)c1	=	9.05
CCCc1nc2c(C)cc(C(=O)NCCc3cccc(OC)c3)cc2n1Cc1ccc(-c2ccccc2S(=O)(=O)Nc2onc(C)c2C)cc1	=	7.38
Cc1cc(Cn2cnc3c2C[C@@H](C(=O)O)N(C(=O)C(c2ccccc2)c2ccccc2)C3)ccc1N	<	4.00
